I'd be grateful if you could share measured R3 Selectivity for these entries.
# targetEntity: PACAP-R3 (Homo sapiens)
# Sequence (P41587 24-438): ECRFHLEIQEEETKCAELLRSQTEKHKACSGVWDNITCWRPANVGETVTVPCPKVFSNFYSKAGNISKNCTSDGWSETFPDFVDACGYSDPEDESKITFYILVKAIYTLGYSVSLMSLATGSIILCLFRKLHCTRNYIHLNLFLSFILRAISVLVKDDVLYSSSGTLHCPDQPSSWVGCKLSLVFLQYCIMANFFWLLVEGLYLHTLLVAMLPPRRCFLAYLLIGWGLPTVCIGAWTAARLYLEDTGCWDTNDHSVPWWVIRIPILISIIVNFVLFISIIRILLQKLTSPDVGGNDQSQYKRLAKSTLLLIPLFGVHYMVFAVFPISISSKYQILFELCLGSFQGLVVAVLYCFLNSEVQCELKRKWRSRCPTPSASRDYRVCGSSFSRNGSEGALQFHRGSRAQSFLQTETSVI
# methodNotes: Cyclic AMP SPA on CHO cells expressing PACAP R3
# Format: cell-based
# Set-up: expressed in transfected cells; host or cells: CHO cells (Geneticin selection)
# reportedConditions: ratio of EC50 at R2 versus EC50 at R3
No end group written: not given here.
Response field accepts a number only; no unit should be typed.

Query block: Endpoint output: R3 Selectivity of HSDAVFTDNYTRLRKQMAAKKYLNSINNKR [Peptide R3P125] . Value?
Result block: 30

Query block: Param item = HSDAVFTDNYTRLRKQMAAKKYLNSIKNKK [Peptide R3P161] ; retrieve measured R3 Selectivity.
Result block: 300

Query block: Tell me the measured R3 Selectivity of HSDAVFTDNYTRLRKQLAAKKYLNSIKNGGT [Peptide R3P30] , please.
Result block: 50

Query block: Looking for the measured R3 Selectivity of HSDAVFTDNYTRLRKQMAAKKYLNSIANKR [Peptide R3P116] , can you help?
Result block: 20

Query block: Report R3 Selectivity for HSDAVFTDNYTRLRKQMAAKKYLNSIKNKP [Peptide R3P165] please.
Result block: 300

Query block: What measured R3 Selectivity goes with HSDAVFTENYTKLRKQLAAKKYLNDLKK [Peptide R3P5] ?
Result block: 30

Query block: # get_value(readout='R3 Selectivity', item= HSDAVFTDNYTRLRKQMAAKKYLNSIKNSR [Peptide R3P148] )
Result block: 100

Query block: Consider the substance HSDAVFTDNYTRLRKQMAAKKYLNSIKNRI [rR3P174] and give its measured R3 Selectivity.
Result block: 90

Query block: Quick check: R3 Selectivity of HSDAVFTDNYTRLRKQLAVKKYLNSILN [Peptide R3P46] ?
Result block: 7

Query block: Endpoint output: R3 Selectivity of HSDAVFTDNYTRLRKQMAAKKYLNSIKNQR [Peptide R3P146] . Value?
Result block: 100

Query block: Form field: reported R3 Selectivity of ESDGIFTDSYSRYRKQMAVKKYLAAVL-NH2 [PAC1]
Result block: 97

Query block: Report R3 Selectivity for HSDAVFTDNYTRLRKQMAVKKYLNSIKK [Peptide R3P41] please.
Result block: 100

Query block: What R3 Selectivity value was documented for this substance, H-HSDAVFTDNYTRLRKQMAAKKYLNDIKKGGT [Peptide R3P20] ?
Result block: 230

Query block: Entry HSDAVFTDNYTRLRKQMAIKKYLNSIKNKR [Peptide R3P103] has what R3 Selectivity?
Result block: 8

Query block: Any idea what its R3 Selectivity is? The substance is HSDAVFTDNYTRLRKQMAAKKYLNSIKN [Peptide R3P49]
Result block: 30

Query block: Given the substance HSDAVFTDNYTRLRKQMAVKKYLNDLKKGGT [Peptide R3P14] , what is its reported R3 Selectivity?
Result block: 3

Query block: Reported R3 Selectivity for HSDAVFTDNYTRLRKQMASKKYLNSIKNRI [rR3P178] : what is it?
Result block: 110

Query block: Need R3 Selectivity, item HSDAVFTDNYTRLRKQMAVKKYLNSIKKKR [Peptide R3P57]
Result block: 190

Query block: Data request, read-out R3 Selectivity, for HSDAVFTDNYTRLRKQMASKKYLNSIRNRI [rR3P193]
Result block: 110

Query block: Tell me the measured R3 Selectivity of H-HSDAVFTDNYTRLRKQMAPKKYLNSIKNKR [Peptide R3P108] , please.
Result block: 3

Query block: Item HSDAVFTDNYTRLRKQMAAKKYLNSIRNKR [Peptide R3P128] has what recorded R3 Selectivity?
Result block: 200

Query block: Bench note: what R3 Selectivity did HSDAVFTDNYTRLRKQMAAKKYLNSIKNKG [Peptide R3P158] show?
Result block: 90
